System: MCF-7 (breast adenocarcinoma) cells
Assay: MTT antiproliferative assay, MCF-7
Type: cell-based
Conditions: Homo sapiens, MCF7, 48 h, read-out: IC50 MCF-7
experimental readout: IC50 (µM)
State just the number; it will be interpreted in µM.

I have this compound here, Cc1[nH]c(=S)sc1C(=O)/C=C/c1ccc(S(N)(=O)=O)cc1 , and I need its recorded IC50.
3.63

====

experimental readout: pIC50
// pIC50 here means minus log10 of the molar concentration (mol/L)

Value wanted: pIC50 (UniProt:P00918) of entry Cc1[nH]c(=S)sc1C(=O)/C=C/c1ccc(S(N)(=O)=O)cc1
6.42

====

Biological target: CA IX (Homo sapiens)
experimental readout: pIC50
// pIC50 here means minus log10 of the molar concentration (mol/L)

I have this compound here, Cc1[nH]c(=S)sc1C(=O)/C=C/c1ccc(S(N)(=O)=O)cc1 [Compound 7] , and I need its recorded pIC50.
7.68

====

Target: CA I (Homo sapiens)
Sequence (P00915 whole entry): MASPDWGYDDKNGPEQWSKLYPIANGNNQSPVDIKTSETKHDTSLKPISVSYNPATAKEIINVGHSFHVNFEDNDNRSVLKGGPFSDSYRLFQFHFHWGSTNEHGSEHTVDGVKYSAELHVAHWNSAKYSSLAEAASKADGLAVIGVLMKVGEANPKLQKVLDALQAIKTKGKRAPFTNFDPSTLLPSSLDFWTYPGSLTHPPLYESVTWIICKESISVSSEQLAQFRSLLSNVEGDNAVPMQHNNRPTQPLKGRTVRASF
experimental readout: pIC50
// pIC50 here means minus log10 of the molar concentration (mol/L)

Value wanted: pIC50 (CA I (Homo sapiens)) of entry Cc1[nH]c(=S)sc1C(=O)/C=C/c1ccc(S(N)(=O)=O)cc1 [Compound 7]
5.72

====

Tested on: WI-38 normal lung fibroblast cells
Assay: MTT cytotoxicity assay, normal WI-38 fibroblasts
Assay type: cell-based
Settings: Homo sapiens, 48 h, WI-38 normal fibroblasts
Procedure: All cell lines were obtained from the Vacsera Cell Culture Library, Tissue Culture Unit, Cairo, Egypt, with ATCC certification. The assay enabled the detection of membrane-compromised cells based on the fluorescence intensity of DNA binding. Check Appendix A for additional information. Cells were cultured in their respective recommended media supplemented with 10% fetal bovine serum and 1% penicillin-streptomycin and maintained at 37 °C in a humidified atmosphere containing 5% CO₂. […]
experimental readout: pIC50
// pIC50 here means minus log10 of the molar concentration (mol/L)

I have this molecule here, COc1ccc(/C=C\c2cc(OC)c(OC)c(OC)c2)cc1O [CA-4, combretastatin A-4, reference compound] , and I need its recorded pIC50.
4.55

====

Test system: HT-29 (colon adenocarcinoma) cells
Test: MTT antiproliferative assay, HT-29
Format: cell-based
Conditions: Homo sapiens, 48 h, HT-29 colorectal cancer cells
experimental readout: pIC50
// pIC50 here means minus log10 of the molar concentration (mol/L)

Value wanted: pIC50 (HT-29 (colon adenocarcinoma) cells) of entry COc1ccc(/C=C\c2cc(OC)c(OC)c(OC)c2)cc1O [CA-4, combretastatin A-4, reference compound]
5.67

Cited source: paper PMC12260535
